Give measured thermal diffusivity for each item. Keep answers brief.
conditions: 333.15 K; 101.33 kPa; Liquid; Laser flash apparatus
Please reply with the bare figure in m2/s and do not write the unit itself.

get_value(item= CCCOC(=O)CCC(C)=O [propyl levulinate] , readout=thermal diffusivity) returns 7.53e-08

Record COC(=O)CCC(C)=O [methyl levulinate] , field thermal diffusivity: 7.7e-08

Per the records, this molecule ( CCCCOC(=O)CCC(C)=O [butyl levulinate] ) has thermal diffusivity equal to 7.48e-08

thermal diffusivity in this record for CCOC(=O)CCC(C)=O [ethyl levulinate] : 7.6e-08

====

conditions: Liquid; Resistive pulse heating
Task for the reader: assign each of the following compounds its reported Critical temperature.
The response must be a number in K with no trailing unit.

The measured Critical temperature associated with CCCCOC(=O)CCC(C)=O [butyl levulinate] reads 692

The measured Critical temperature associated with CCCOC(=O)CCC(C)=O [propyl levulinate] reads 674

The compound listed as COC(=O)CCC(C)=O [methyl levulinate] has a reported Critical temperature of 668

Form field Critical temperature, entry CCOC(=O)CCC(C)=O [ethyl levulinate] : 669

The recorded Critical temperature for entry CC(=O)CCC(=O)O equals 766

====

settings: 353.15 K; 101.33 kPa; Liquid; Laser flash apparatus
Measured metric: thermal diffusivity (m2/s)
// return numeric value only (unit: m2/s, not printed)

Notebook: CCCCOC(=O)CCC(C)=O [butyl levulinate] , thermal diffusivity read as 7.26e-08

The compound listed as CCOC(=O)CCC(C)=O [ethyl levulinate] has a reported thermal diffusivity of 7.4e-08

Looking up COC(=O)CCC(C)=O [methyl levulinate] , I see its thermal diffusivity listed as 7.5e-08

thermal diffusivity reported for this compound CCCOC(=O)CCC(C)=O [propyl levulinate] : 7.26e-08

====

settings: 303.15 K; 101.33 kPa; Liquid; Laser flash apparatus
I'd appreciate it if you could supply thermal diffusivity values for the items below.
Entry rule: numbers only, all in m2/s.

Short answer for CCCCOC(=O)CCC(C)=O [butyl levulinate] : thermal diffusivity was 7.77e-08

The compound listed as CCOC(=O)CCC(C)=O [ethyl levulinate] shows thermal diffusivity equal to 7.9e-08

Quick note, thermal diffusivity for CCCOC(=O)CCC(C)=O [propyl levulinate] landed at 7.82e-08

The compound listed as COC(=O)CCC(C)=O [methyl levulinate] has a reported thermal diffusivity of 8e-08

====

settings: 363.15 K; 101.33 kPa; Liquid; Laser flash apparatus
Measured metric: thermal diffusivity
Quote the value and follow it with the unit of measurement.

According to the records, this compound CCOC(=O)CCC(C)=O [ethyl levulinate] displays thermal diffusivity of 7.25e-08 m2/s

Reported thermal diffusivity of CCCCOC(=O)CCC(C)=O [butyl levulinate] : 7.15e-08 m2/s

thermal diffusivity reading for CCCOC(=O)CCC(C)=O [propyl levulinate] : 7.22e-08 m2/s

The compound listed as COC(=O)CCC(C)=O [methyl levulinate] has a reported thermal diffusivity of 7.35e-08 m2/s

====

conditions: 323.15 K; 101.33 kPa; Liquid; Laser flash apparatus
Measured metric: thermal diffusivity (m2/s)
Write the number in m2/s without appending the unit.

Please fill in: thermal diffusivity reported for CCCOC(=O)CCC(C)=O [propyl levulinate] = 7.62e-08

thermal diffusivity in this record for COC(=O)CCC(C)=O [methyl levulinate] : 7.85e-08

thermal diffusivity for CCCCOC(=O)CCC(C)=O [butyl levulinate] is 7.57e-08

For CCOC(=O)CCC(C)=O [ethyl levulinate] the compound record lists thermal diffusivity as 7.7e-08
